Give measured Neutralizing activity IC50 for each item. Keep answers brief.
Target: T1, human LPL (lipoprotein lipase) (human, UniProt P06858 28-475)
T1 sequence (looked up): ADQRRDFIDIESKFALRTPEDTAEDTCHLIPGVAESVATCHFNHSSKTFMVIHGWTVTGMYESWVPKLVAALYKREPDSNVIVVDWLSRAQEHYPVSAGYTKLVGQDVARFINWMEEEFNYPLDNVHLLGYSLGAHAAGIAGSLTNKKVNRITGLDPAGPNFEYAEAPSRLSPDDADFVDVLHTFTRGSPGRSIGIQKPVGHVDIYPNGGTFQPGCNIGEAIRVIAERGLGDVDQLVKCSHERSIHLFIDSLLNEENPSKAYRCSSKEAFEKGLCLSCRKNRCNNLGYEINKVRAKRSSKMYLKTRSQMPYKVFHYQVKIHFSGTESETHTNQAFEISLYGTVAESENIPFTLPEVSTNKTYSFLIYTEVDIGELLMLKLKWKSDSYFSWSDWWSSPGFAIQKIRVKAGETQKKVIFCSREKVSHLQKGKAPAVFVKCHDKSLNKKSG
Experiment: cell-based or functional assay

binder="h53A11-S1 (antibody, V domains shown) VH: QVQLVQSGAEVKKPGASVKVSCKASGYTFTDYTMHWVRQAPGQRLEWMGGINPYYGGTTYNEKFKDRVTITRDTSASTAYMELSSLRSEDTAVYYCAKGDYYGGSYNYWGQGTTVTVSS VL: EIVMTQSLATLSVSPGERATLSCRASQDISNSLHWYQQKPGQAPRLLIKYASQSISGIPARFSGSGSGTEFTLTISSLQSEDFAVYYCQQSNSWPYTFGQGTKLEIK" reading="> 400 nM"

Could you now look at the following binder, please?
Give its Neutralizing activity IC50 value. Item: h13B3-S1 (antibody, V domains shown) VH: QVQLVQSGAEVKKPGASVKVSCKASGYTFTEYTMHWVRQAPGQGLEWMGSINPYYGGTSYNEKFKDRVTMTRDTSTSTVYMELSSLRSEDTAVYYCARYGNYVGYFDYWGQGTTVTVSS VL: EIVLTQSPGTLSLSPGERATLSCRASSSVHYMYWYQQKPGQAPRLLIYYTSNLAPGIPDRFSGSGSGTDFTLTISRLEPEDFAVYYCQQFTSSPYTFGGGTKVEIK
> 400 nM

Values from patent US20200071424A1
